Values were extracted from patent US20060069132A1.

- System: corn
- Run Description: Test C pre-/postemergence herbicide test
- Format: in vivo, Zea mays
- Condition Parameters: 250 g ai/ha; scale 0-100; preemergence
- Source text: […]

Compound | Plant response rating, Corn
CCc1nn(C(C)(C)CC)nc1C(=O)Nc1cccc(C(=O)N(C)C)c1 | 65
CCN(CC)C(=O)c1cccc(NC(=O)c2nn(C(C)(C)C)nc2C)c1 | 40
CCc1nn(C(C)(C)C)nc1C(=O)Nc1cccc(C(=O)NC2CC2)c1 | 10
CCC1=NN(C(C)(C)C)CC1C(=O)Nc1cc(C(=O)N2CC=CC2)ccc1F (racemic) | 45
CCn1nc(C(C)(C)C)cc1C(=O)Nc1cncc(C(=O)N(C)C)n1 | 50
